testedTarget: T1, 4H2466-AA
T1 chain: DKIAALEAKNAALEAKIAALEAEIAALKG
assayDetails: two-hybrid library CCmax;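 also: natural log of median RNA to DNA barcode read ratio; higher means stronger binding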
measurementContext: mean of both orientations
parameterMeasured: interaction score

>>> df
                                     binder  measured
0  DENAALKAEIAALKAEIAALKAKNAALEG [4H1615-AA]     -1.57
1  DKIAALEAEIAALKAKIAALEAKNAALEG [4H2151-AA]     -1.42
2  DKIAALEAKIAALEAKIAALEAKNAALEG [4H2343-AA]     -1.39
3  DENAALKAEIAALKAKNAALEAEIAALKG [4H1650-AA]     -1.67

[a] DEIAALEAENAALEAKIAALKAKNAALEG [4H175-AA]
[b] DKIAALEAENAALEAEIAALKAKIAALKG [4H2190-AA]
Challenge: Compare interaction score: is it lower for a or for b ? Label of pick, please.
Response given: a
